- Tested on: johnsongrass (Sorghum halepense)
- method.notes: Test C pre-/postemergence greenhouse test
- Format: in vivo
- reported.conditions: Preemergence, 125 g ai/ha; scale 0 to 100
readout.type: Plant response rating, Johnsongrass
Respond with the number and no other words.

compound	Plant response rating, Johnsongrass
Cc1ccc2ccc(F)cc2c1-c1c(O)c(Cl)nn(C)c1=O [Cpd. No. 21]	65
Cc1cc(Cl)c2ccccc2c1-c1c(O)c(Cl)nn(C)c1=O [Cpd. No. 65]	20

In plain terms, Cc1ccc2ccc(C)c(-c3c(O)c(Cl)nn(C)c3=O)c2c1 [Cpd. No. 20] has a documented Plant response rating, Johnsongrass of 65

In plain terms, Cc1ccc2ccc(Cl)cc2c1-c1c(O)c(Cl)nn(C)c1=O [Cpd. No. 22] has a documented Plant response rating, Johnsongrass of 70

----------
- Tested on: waterhemp (common waterhemp, Amaranthus rudis)
- method.notes: Test C pre-/postemergence greenhouse test
- Assay type: in vivo
- reported.conditions: Postemergence, 125 g ai/ha; scale 0 to 100
Below, each entry is listed alongside its reported Plant response rating, Waterhemp.

Below, 3 compounds whose answers are already recorded.
structure.notation	Plant response rating, Waterhemp
Cc1cc(Cl)c2ccccc2c1-c1c(O)c(Cl)nn(C)c1=O	95
Cc1ccc2ccc(Cl)cc2c1-c1c(O)c(Cl)nn(C)c1=O	90
Cc1ccc2ccc(C)c(-c3c(O)c(Cl)nn(C)c3=O)c2c1	95

// moving on: another record for Plant response rating, Waterhemp
In plain terms, "Cc1ccc2ccc(F)cc2c1-c1c(O)c(Cl)nn(C)c1=O" has a documented Plant response rating, Waterhemp of 90

----------
- Test system: ragweed (common ragweed, Ambrosia elatior)
- method.notes: Test A pre-/postemergence greenhouse test
- Type: in vivo
- reported.conditions: Preemergence, 125 g ai/ha
readout.type: Plant response rating (0 to 100 scale)
Respond with the number and no other words.

compound	Plant response rating (0 to 100 scale)
Cc1ccc2ccc(C)c(-c3c(O)c(Cl)nn(C)c3=O)c2c1 [Cpd. No. 20]	90
Cc1cc(Cl)c2ccccc2c1-c1c(O)c(Cl)nn(C)c1=O [Cpd. No. 65]	100
Cc1ccc2ccc(Cl)cc2c1-c1c(O)c(Cl)nn(C)c1=O [Cpd. No. 22]	100

// moving on: another record for Plant response rating (0 to 100 scale)
In plain terms, Cc1ccc2ccc(F)cc2c1-c1c(O)c(Cl)nn(C)c1=O [Cpd. No. 21] has a documented Plant response rating (0 to 100 scale) of 100

----------
- System: corn (Zea mays)
- method.notes: Test C pre-/postemergence greenhouse test
- Format: in vivo
- reported.conditions: Postemergence, 62 g ai/ha; scale 0 to 100
readout.type: Plant response rating, Corn
Respond with the number and no other words.

structure.notation	Plant response rating, Corn
Cc1ccc2ccc(Cl)cc2c1-c1c(O)c(Cl)nn(C)c1=O	35
Cc1ccc2ccc(C)c(-c3c(O)c(Cl)nn(C)c3=O)c2c1	5
Cc1ccc2ccc(F)cc2c1-c1c(O)c(Cl)nn(C)c1=O	15

// moving on: another record for Plant response rating, Corn
In plain terms, "Cc1cc(Cl)c2ccccc2c1-c1c(O)c(Cl)nn(C)c1=O" has a documented Plant response rating, Corn of 65

----------
- Tested on: corn (Zea mays)
- method.notes: Test A postemergence greenhouse test
- Format: in vivo
- reported.conditions: 125 g ai/ha
readout.type: Plant response rating (0 to 100 scale)
Respond with the number and no other words.

structure.notation	readout.type	reported.value
Cc1ccc2ccc(C)c(-c3c(O)c(Cl)nn(C)c3=O)c2c1	Plant response rating (0 to 100 scale)	30
Cc1ccc2ccc(Cl)cc2c1-c1c(O)c(Cl)nn(C)c1=O	Plant response rating (0 to 100 scale)	10
Cc1ccc2ccc(F)cc2c1-c1c(O)c(Cl)nn(C)c1=O	Plant response rating (0 to 100 scale)	20

// moving on: another record for Plant response rating (0 to 100 scale)
I looked up "Cc1cc(Cl)c2ccccc2c1-c1c(O)c(Cl)nn(C)c1=O" and its Plant response rating (0 to 100 scale) for corn (Zea mays) was 50

----------
Below, each entry is listed alongside its reported Plant response rating, Crabgrass, Large.
- Tested on: crabgrass, large (Digitaria sanguinalis)
- method.notes: Test C pre-/postemergence greenhouse test
- Type: in vivo
- reported.conditions: Postemergence, 31 g ai/ha; scale 0 to 100

Below, 3 compounds whose answers are already recorded.
compound	target	reported.value
Cc1ccc2ccc(F)cc2c1-c1c(O)c(Cl)nn(C)c1=O [Cpd. No. 21]	crabgrass, large (Digitaria sanguinalis)	70
Cc1ccc2ccc(C)c(-c3c(O)c(Cl)nn(C)c3=O)c2c1 [Cpd. No. 20]	crabgrass, large (Digitaria sanguinalis)	40
Cc1ccc2ccc(Cl)cc2c1-c1c(O)c(Cl)nn(C)c1=O [Cpd. No. 22]	crabgrass, large (Digitaria sanguinalis)	25

// moving on: another record for Plant response rating, Crabgrass, Large
I looked up Cc1cc(Cl)c2ccccc2c1-c1c(O)c(Cl)nn(C)c1=O [Cpd. No. 65] and its Plant response rating, Crabgrass, Large for crabgrass, large (Digitaria sanguinalis) was 40

----------
- System: kochia (Kochia scoparia)
- method.notes: Test C pre-/postemergence greenhouse test
- Assay type: in vivo
- reported.conditions: Postemergence, 16 g ai/ha; scale 0 to 100
readout.type: Plant response rating, Kochia
Respond with the number and no other words.

Below, 3 compounds whose answers are already recorded.
compound	Plant response rating, Kochia
Cc1ccc2ccc(C)c(-c3c(O)c(Cl)nn(C)c3=O)c2c1 [Cpd. No. 20]	80
Cc1cc(Cl)c2ccccc2c1-c1c(O)c(Cl)nn(C)c1=O [Cpd. No. 65]	40
Cc1ccc2ccc(F)cc2c1-c1c(O)c(Cl)nn(C)c1=O [Cpd. No. 21]	13

// moving on: another record for Plant response rating, Kochia
In plain terms, Cc1ccc2ccc(Cl)cc2c1-c1c(O)c(Cl)nn(C)c1=O [Cpd. No. 22] has a documented Plant response rating, Kochia of 25

----------
Below, each entry is listed alongside its reported Plant response rating, Oilseed Rape.
- System: oilseed rape (Brassica napus)
- method.notes: Test C pre-/postemergence greenhouse test
- Type: in vivo
- reported.conditions: Preemergence, 31 g ai/ha; scale 0 to 100

Below, 3 molecules whose answers are already recorded.
molecule	Plant response rating, Oilseed Rape
Cc1cc(Cl)c2ccccc2c1-c1c(O)c(Cl)nn(C)c1=O [Cpd. No. 65]	5
Cc1ccc2ccc(Cl)cc2c1-c1c(O)c(Cl)nn(C)c1=O [Cpd. No. 22]	0
Cc1ccc2ccc(F)cc2c1-c1c(O)c(Cl)nn(C)c1=O [Cpd. No. 21]	85

// moving on: another record for Plant response rating, Oilseed Rape
In plain terms, Cc1ccc2ccc(C)c(-c3c(O)c(Cl)nn(C)c3=O)c2c1 [Cpd. No. 20] has a documented Plant response rating, Oilseed Rape of 0

----------
Below, each entry is listed alongside its reported Plant response rating, Corn.
- Tested on: corn (Zea mays)
- method.notes: Test C pre-/postemergence greenhouse test
- Type: in vivo
- reported.conditions: Preemergence, 61 g ai/ha; scale 0 to 100
Respond with the number and no other words.

Below, 3 compounds whose answers are already recorded.
structure.notation	Plant response rating, Corn
Cc1ccc2ccc(F)cc2c1-c1c(O)c(Cl)nn(C)c1=O	0
Cc1ccc2ccc(C)c(-c3c(O)c(Cl)nn(C)c3=O)c2c1	0
Cc1ccc2ccc(Cl)cc2c1-c1c(O)c(Cl)nn(C)c1=O	5

// moving on: another record for Plant response rating, Corn
In plain terms, "Cc1cc(Cl)c2ccccc2c1-c1c(O)c(Cl)nn(C)c1=O" has a documented Plant response rating, Corn of 0

----------
- System: waterhemp (common waterhemp, Amaranthus rudis)
- method.notes: Test C pre-/postemergence greenhouse test
- Assay type: in vivo
- reported.conditions: Preemergence, 125 g ai/ha; scale 0 to 100
readout.type: Plant response rating, Waterhemp
Respond with the number and no other words.

Below, 3 compounds whose answers are already recorded.
structure.notation	Plant response rating, Waterhemp
Cc1ccc2ccc(F)cc2c1-c1c(O)c(Cl)nn(C)c1=O	98
Cc1cc(Cl)c2ccccc2c1-c1c(O)c(Cl)nn(C)c1=O	95
Cc1ccc2ccc(C)c(-c3c(O)c(Cl)nn(C)c3=O)c2c1	100

// moving on: another record for Plant response rating, Waterhemp
In plain terms, "Cc1ccc2ccc(Cl)cc2c1-c1c(O)c(Cl)nn(C)c1=O" has a documented Plant response rating, Waterhemp of 95

----------
Below, each entry is listed alongside its reported Plant response rating, Barnyardgrass.
- Test system: barnyardgrass (Echinochloa crus-galli)
- method.notes: Test C pre-/postemergence greenhouse test
- Type: in vivo
- reported.conditions: Preemergence, 62 g ai/ha; scale 0 to 100
Respond with the number and no other words.

Below, 3 compounds whose answers are already recorded.
compound	Plant response rating, Barnyardgrass
Cc1ccc2ccc(Cl)cc2c1-c1c(O)c(Cl)nn(C)c1=O [Cpd. No. 22]	85
Cc1ccc2ccc(C)c(-c3c(O)c(Cl)nn(C)c3=O)c2c1 [Cpd. No. 20]	95
Cc1cc(Cl)c2ccccc2c1-c1c(O)c(Cl)nn(C)c1=O [Cpd. No. 65]	60

In plain terms, Cc1ccc2ccc(F)cc2c1-c1c(O)c(Cl)nn(C)c1=O [Cpd. No. 21] has a documented Plant response rating, Barnyardgrass of 85
